# Lookup of reported viability, T/C keyed by entry
tested on: HUVEC/MSC spheroids viability; test: Human HUVEC/MSC cell line growth inhibition [KRAS2]; conditions: second compound 0.949 µM; first compound 0.00316 µM; stronger effect = lower value;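 note: percent of DMSO vehicle control luminescence so 100% = untreated viability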

Please review the entries below; each comes with its answer.
Molecule	viability, T/C
CC(C)n1nc(-c2ccc3oc(N)nc3c2)c2c(N)ncnc21 + C=CC(=O)N1CCN(c2nc(OCC3CCCN3C)nc3c2CCN(c2cccc4cccc(C)c24)C3)CC1CC#N	42.7%
CCN1CCN(Cc2ccc(Nc3ncc(F)c(-c4cc(F)c5nc(C)n(C(C)C)c5c4)n3)nc2)CC1 + C=CC(=O)N1CCN(c2nc(OCC3CCCN3C)nc3c2CCN(c2cccc4cccc(C)c24)C3)CC1CC#N	85.4%
CN(C)C/C=C/C(=O)Nc1cc2c(Nc3ccc(F)c(Cl)c3)ncnc2cc1O[C@H]1CCOC1 + C=CC(=O)N1CCN(c2nc(OCC3CCCN3C)nc3c2CCN(c2cccc4cccc(C)c24)C3)CC1CC#N	72.3%

// next entry
Query :: Return viability, T/C for the following molecule: Cn1ncnc1[C@H]1c2n[nH]c(=O)c3cc(F)cc(c23)N[C@@H]1c1ccc(F)cc1 + C=CC(=O)N1CCN(c2nc(OCC3CCCN3C)nc3c2CCN(c2cccc4cccc(C)c24)C3)CC1CC#N
Result :: 78.8%

====

tested on: HUVEC/MSC spheroids viability; assay: Human HUVEC/MSC cell line growth inhibition [KRAS2]; conditions: second compound 3.16 µM; first compound 1 µM; stronger effect = lower value;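 note: percent of DMSO vehicle control luminescence so 100% = untreated viability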
Recorded measurements of viability, T/C, one per entry
All answers are understood in %, so give the number only.

Compound	Obs Value
CC1(C)CCC(CN2CCN(c3ccc(C(=O)NS(=O)(=O)c4ccc(NCC5CCOCC5)c([N+](=O)[O-])c4)c(Oc4cnc5[nH]ccc5c4)c3)CC2)=C(c2ccc(Cl)cc2)C1 + C=CC(=O)N1CCN(c2nc(=O)n(-c3c(C)ccnc3C(C)C)c3nc(-c4c(O)cccc4F)c(F)cc23)C(C)C1	113

Query :: Give the measured viability, T/C for CCNC(=O)CC1N=C(c2ccc(Cl)cc2)c2cc(OC)ccc2-n2c(C)nnc21 (stereo unspecified) + CNCc1ccccc1-c1csc(C(C)Nc2nc(C)nc3cc(OC)c(OC)cc23)c1
Result :: 97.3

Query :: Quick one: give measured viability, T/C for COc1cc2nccc(Oc3ccc(NC(=O)C4(C(=O)Nc5ccc(F)cc5)CC4)cc3)c2cc1OC + COc1cc2nc(C)nc(NC(C)c3cc(N)cc(C(F)(F)F)c3)c2cc1OC1CCOC1
Result :: 76.5

Query :: Return reported viability, T/C. Input compound: O=C(c1cc(Cc2n[nH]c(=O)c3ccccc23)ccc1F)N1CCN(C(=O)C2CC2)CC1 + C=CC(=O)N1CCN(c2nc(=O)n(-c3c(C)ccnc3C(C)C)c3nc(-c4c(O)cccc4F)c(F)cc23)C(C)C1
Result :: 137

Query :: Identify measured viability, T/C corresponding to CC(C)NCC(C(=O)N1CCN(c2ncnc3c2C(C)CC3O)CC1)c1ccc(Cl)cc1 (stereo unspecified) + COc1cc2nc(C)nc(NC(C)c3cc(N)cc(C(F)(F)F)c3)c2cc1OC1CCOC1
Result :: 61.8

Query :: Report viability, T/C for Cn1nccc1Nc1nccc(-c2cc3c(s2)C(C)(C)N(CCN2CCOCC2)C3=O)n1 + C=CC(=O)N1CCN(c2nc(=O)n(-c3c(C)ccnc3C(C)C)c3nc(-c4c(O)cccc4F)c(F)cc23)C(C)C1
Result :: 84

Query :: For the compound COC(=O)c1ccc2c(C(=Nc3ccc(N(C)C(=O)CN4CCN(C)CC4)cc3)c3ccccc3)c(O)[nH]c2c1 + CC1OCC2(CCN(c3cnc(Sc4ccnc(N)c4Cl)c(N)n3)CC2)C1N , give its reported viability, T/C.
Result :: 30.9

Query :: Fill in reported viability, T/C for this entry: COc1cc(Nc2ncc3c(n2)-c2ccc(Cl)cc2C(c2c(F)cccc2OC)=NC3)ccc1C(=O)O + CC1OCC2(CCN(c3cnc(Sc4ccnc(N)c4Cl)c(N)n3)CC2)C1N
Result :: 88.8

Query :: Return reported viability, T/C. Input compound: CC(C)NCC(C(=O)N1CCN(c2ncnc3c2C(C)CC3O)CC1)c1ccc(Cl)cc1 (stereo unspecified) + CC1OCC2(CCN(c3cnc(Sc4ccnc(N)c4Cl)c(N)n3)CC2)C1N
Result :: 43.1

Query :: Assign viability, T/C to the following record: COc1cc(Nc2ncc3c(n2)-c2ccc(Cl)cc2C(c2c(F)cccc2OC)=NC3)ccc1C(=O)O + CNCc1ccccc1-c1csc(C(C)Nc2nc(C)nc3cc(OC)c(OC)cc23)c1
Result :: 90.4

Query :: Provide only the value of recorded viability, T/C for CCN1CCN(Cc2ccc(Nc3ncc(F)c(-c4cc(F)c5nc(C)n(C(C)C)c5c4)n3)nc2)CC1 + COc1cc2nc(C)nc(NC(C)c3cc(N)cc(C(F)(F)F)c3)c2cc1OC1CCOC1
Result :: 103
